Experiment: Cytotoxicity against human HuH7 cells assessed as reduction in cell viability by measuring ATP level measured after 72 hrs by CellTiter-Glo luminescent assay
Assay type: cell-based, Huh-7
Outcome Measure: CC50 at 72 h (µM)
Entry rule: numbers only, all in µM.

// query Request the reported CC50 at 72 h associated with CC(C)OC(=O)[C@H](C)N[P@](=O)(OC[C@H]1O[C@@H](n2ccc(=O)[nH]c2=O)[C@](C)(F)[C@@H]1O)Oc1ccccc1 [SOFOSBUVIR]
// result 200

// query Continue with CCCCc1cn(-c2cccc(S(=O)(=O)Nc3ccccc3C(F)(F)F)c2)nn1
// result 18

// query Continue with CCOCc1cn(-c2cccc(S(=O)(=O)Nc3ccccc3C(F)(F)F)c2)nn1
// result 150
